Values compiled from patent US11820822B2.

- Test system: B16F10-Cas9 cells co-cultured with Pmel-1 T cells
- test_protocol: Genome-scale CRISPR-Cas9 screen, selection with Pmel-1 T cells
- Format: cell-based, mouse
- condition_context: Table 3; B16F10-Cas9 cells pre-treated with IFNγ, co-cultured with Pmel-1 T cells 1:1 for three days; negative = depleted, positive = enriched
Consider the following sequences; for each one, report its Pmel+ (sgRNA Log(2) fold change, Pmel-1 selection versus control T cells).
API note: the answer field is a bare number with no unit suffix.

Quick one: give measured Pmel+ (sgRNA Log(2) fold change, Pmel-1 selection versus control T cells) for TCTTAAAGCTACGGTGTAAG (chemistry not fully specified) -0.87

Quick one: give measured Pmel+ (sgRNA Log(2) fold change, Pmel-1 selection versus control T cells) for AGAGATCTGCGCCATTTAAG (chemistry not fully specified) -0.91

Quick one: give measured Pmel+ (sgRNA Log(2) fold change, Pmel-1 selection versus control T cells) for CGATGCCATTCGAATGACAG (chemistry not fully specified) 8.40

Quick one: give measured Pmel+ (sgRNA Log(2) fold change, Pmel-1 selection versus control T cells) for ACTCGTACAGCTCCTGTGGT (chemistry not fully specified) 2.62

Quick one: give measured Pmel+ (sgRNA Log(2) fold change, Pmel-1 selection versus control T cells) for CAGCAGCAAGTTCACAGGTG (chemistry not fully specified) -1.37

Quick one: give measured Pmel+ (sgRNA Log(2) fold change, Pmel-1 selection versus control T cells) for GGACACCAAGTTATTCCGTG (chemistry not fully specified) -2.89

Quick one: give measured Pmel+ (sgRNA Log(2) fold change, Pmel-1 selection versus control T cells) for TGTTTGCAGTTAGCAAAACG (chemistry not fully specified) 0.00

Quick one: give measured Pmel+ (sgRNA Log(2) fold change, Pmel-1 selection versus control T cells) for CCTGGGCTAGCACATAACCA (chemistry not fully specified) 0.10

Quick one: give measured Pmel+ (sgRNA Log(2) fold change, Pmel-1 selection versus control T cells) for GTCTTGTGCAAAAAGCCCGA (chemistry not fully specified) -0.15

Quick one: give measured Pmel+ (sgRNA Log(2) fold change, Pmel-1 selection versus control T cells) for CCGCAGCAGATAGACACCAT (chemistry not fully specified) -0.11

###

Consider the following sequences; for each one, report its Pmel+ (sgRNA Log(2) fold change, Pmel-1 selection versus control T cells).
- System: B16F10-Cas9 cells co-cultured with Pmel-1 T cells
- test_protocol: Genome-scale CRISPR-Cas9 screen, selection with Pmel-1 T cells
- Type: cell-based, mouse
- condition_context: Table 3; B16F10-Cas9 cells pre-treated with IFNγ, co-cultured with Pmel-1 T cells 1:1 for three days; negative = depleted, positive = enriched

Quick one: give measured Pmel+ (sgRNA Log(2) fold change, Pmel-1 selection versus control T cells) for GGTCATACTTAAAAGCACAA (chemistry not fully specified) -0.81

Quick one: give measured Pmel+ (sgRNA Log(2) fold change, Pmel-1 selection versus control T cells) for TGTGAATGCTATGACGAGCT (chemistry not fully specified) 0.02

Quick one: give measured Pmel+ (sgRNA Log(2) fold change, Pmel-1 selection versus control T cells) for TTAATGACGAGCTCGTGGAG (chemistry not fully specified) 8.60

Quick one: give measured Pmel+ (sgRNA Log(2) fold change, Pmel-1 selection versus control T cells) for ACTAATGGACTCGCACACGT (chemistry not fully specified) 2.09

Quick one: give measured Pmel+ (sgRNA Log(2) fold change, Pmel-1 selection versus control T cells) for GCTGTTACTCCAGAGACACA (chemistry not fully specified) -2.27

Quick one: give measured Pmel+ (sgRNA Log(2) fold change, Pmel-1 selection versus control T cells) for GAATACGAAGCAGAAAAGGT (chemistry not fully specified) 0.00

Quick one: give measured Pmel+ (sgRNA Log(2) fold change, Pmel-1 selection versus control T cells) for ACACAACGCTAAGACAGTCG (chemistry not fully specified) -0.22

Quick one: give measured Pmel+ (sgRNA Log(2) fold change, Pmel-1 selection versus control T cells) for GCCAACATCTGCTTACTCGC (chemistry not fully specified) -1.97

Quick one: give measured Pmel+ (sgRNA Log(2) fold change, Pmel-1 selection versus control T cells) for TATGTGGAGCATAACCGGAG (chemistry not fully specified) 3.80

Quick one: give measured Pmel+ (sgRNA Log(2) fold change, Pmel-1 selection versus control T cells) for GAATCCTCCAGAAGGAATCG (chemistry not fully specified) 2.99
